Data origin: the supplement of paper PMC9112550

- Tested on: Escherichia coli TOP10
- Procedure summary: shrunken log2 fold change of peptide-encoding DNA abundance (4.5 h post-induction vs induction); higher = less antimicrobial activity (less host growth inhibition)
- Reported conditions: time post-induction: 4.5 h; library: site-saturation at positions 5, 18, 19, 20
Endpoint label: shrunken log2 fold change
Lab note: jot the number down without any unit.

The following sequences have reported results that may help.
{"columns": ["Seq string", "shrunken log2 fold change"],
 "data": [
  ["RRIRRRPPRLPRPRPRPLFAPRP", 0.755],
  ["RRIRWRPPRLPRPRPRPYDFPRP", -0.181],
  ["RRIRYRPPRLPRPRPRPLLQPRP", -0.309],
  ["RRIRGRPPRLPRPRPRPAVCPRP", 0.938],
  ["RRIRTRPPRLPRPRPRPGHQPRP", -0.199]
]}

Please look up its shrunken log2 fold change: "RRIRIRPPRLPRPRPRPAVCPRP"
-0.214

So what's the measured shrunken log2 fold change for this one? "RRIRHRPPRLPRPRPRPEVSPRP"
-0.0122

Consider the sequence "RRIRARPPRLPRPRPRPTCYPRP" and give its measured shrunken log2 fold change.
0.128

====

- Tested on: Escherichia coli TOP10
- Procedure summary: shrunken log2 fold change of peptide-encoding DNA abundance (4.5 h post-induction vs induction); higher = less antimicrobial activity (less host growth inhibition)
- Reported conditions: time post-induction: 4.5 h; library: site-saturation at positions 5, 18, 19, 20
Endpoint label: shrunken log2 fold change
Form rule: numeric answer, no unit written next to it.

{"columns": ["Seq string", "System", "shrunken log2 fold change"],
 "data": [
  ["RRIRGRPPRLPRPRPRPWLGPRP", "Escherichia coli TOP10", 0.245],
  ["RRIRYRPPRLPRPRPRPVQMPRP", "Escherichia coli TOP10", -0.0524],
  ["RRIRVRPPRLPRPRPRPHEAPRP", "Escherichia coli TOP10", 0.145],
  ["RRIRYRPPRLPRPRPRPYHHPRP", "Escherichia coli TOP10", -0.0688],
  ["RRIRKRPPRLPRPRPRPAMCPRP", "Escherichia coli TOP10", 0.059]
]}

Requested read-out: shrunken log2 fold change. Entry: "RRIRIRPPRLPRPRPRPVQRPRP"
-0.039

Query: shrunken log2 fold change; subject: "RRIRFRPPRLPRPRPRPTPVPRP"
0.706

Suppose we examine the sequence "RRIRNRPPRLPRPRPRPPLGPRP" ; what shrunken log2 fold change value has been reported?
0.331

Recorded shrunken log2 fold change for "RRIRARPPRLPRPRPRPVFGPRP" , please?
0.353

Look up shrunken log2 fold change: "RRIRQRPPRLPRPRPRPKEYPRP"
0.0124

Looking for the measured shrunken log2 fold change of "RRIRRRPPRLPRPRPRPTCQPRP" , can you help?
0.775

I have this sequence here, "RRIRARPPRLPRPRPRPQATPRP" , and I need its recorded shrunken log2 fold change.
0.389

====

- Tested on: Escherichia coli TOP10;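 also: peptides expressed intracellularly from a pBAD plasmid library in pooled LB shake-flask culture, induced with 0.3% L-arabinose, DNA abundance read by NGS, three biological replicates, DESeq2 with apeglm shrinkage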
- Procedure summary: shrunken log2 fold change of peptide-encoding DNA abundance (4.5 h post-induction vs induction); higher = less antimicrobial activity (less host growth inhibition)
- Reported conditions: time post-induction: 4.5 h; library: site-saturation at positions 5, 18, 19, 20
The following sequences are shown together with reported shrunken log2 fold change values.
In your answer, state the number alone without any accompanying words.

Worked examples, 3 sequences total:
{"columns": ["Seq string", "Experimental result"],
 "data": [
  ["RRIRFRPPRLPRPRPRPGGQPRP", 0.0786],
  ["RRIRNRPPRLPRPRPRPKGRPRP", 0.0238],
  ["RRIRCRPPRLPRPRPRPAVWPRP", 0.617]
]}

Look up shrunken log2 fold change: "RRIRVRPPRLPRPRPRPCVVPRP"
0.0226

Entry under review: "RRIRTRPPRLPRPRPRPHGYPRP" . Reported shrunken log2 fold change?
-0.267

What value of shrunken log2 fold change has been reported for the following sequence? "RRIRTRPPRLPRPRPRPWLMPRP"
-0.11

What value of shrunken log2 fold change has been recorded for this entry: "RRIRMRPPRLPRPRPRPDQWPRP"
0.312

Quick check: shrunken log2 fold change of "RRIRKRPPRLPRPRPRPFYQPRP" ?
-0.101
